Hi there, I'd appreciate the recorded normalized RNA/DNA level without ligand (log10) for every entry that follows.
B1: library; a variant is named by its letters at N, in order (parent)
chain: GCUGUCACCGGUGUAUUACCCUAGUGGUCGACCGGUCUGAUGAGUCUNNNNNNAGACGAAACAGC

Variants of: B1
Experiment: normalized RNA/DNA level without ligand (relative to sTRSVctl = 100) (log10 (% of sTRSVctl)); ligand: hypoxanthine (xanthine aptamer); higher = less ribozyme self-cleavage, higher mRNA level
Settings: HEK293T, reporter: mCherry (pCS4076), ligand present: no
Response field accepts a number only; no unit should be typed.

Query (variant): GCUGUCACCGGUGUAUUACCCUAGUGGUCGACCGGUCUGAUGAGUCUAAGAAUAGACGAAACAGC [AAGAAU] ; field requested: normalized RNA/DNA level without ligand (log10) 1.65

GCUGUCACCGGUGUAUUACCCUAGUGGUCGACCGGUCUGAUGAGUCUGUCUCAAGACGAAACAGC [GUCUCA] , same question. 1.94

GCUGUCACCGGUGUAUUACCCUAGUGGUCGACCGGUCUGAUGAGUCUCCUCGUAGACGAAACAGC [CCUCGU] , same question. 1.87

GCUGUCACCGGUGUAUUACCCUAGUGGUCGACCGGUCUGAUGAGUCUGAUGAAAGACGAAACAGC [GAUGAA] , same question. 1.71

GCUGUCACCGGUGUAUUACCCUAGUGGUCGACCGGUCUGAUGAGUCUCGUUUGAGACGAAACAGC [CGUUUG] , same question. 1.86

GCUGUCACCGGUGUAUUACCCUAGUGGUCGACCGGUCUGAUGAGUCUGAUUGAAGACGAAACAGC [GAUUGA] , same question. 1.61

GCUGUCACCGGUGUAUUACCCUAGUGGUCGACCGGUCUGAUGAGUCUAACAGUAGACGAAACAGC [AACAGU] , same question. 1.54

GCUGUCACCGGUGUAUUACCCUAGUGGUCGACCGGUCUGAUGAGUCUUUUCUGAGACGAAACAGC [UUUCUG] , same question. 1.77

GCUGUCACCGGUGUAUUACCCUAGUGGUCGACCGGUCUGAUGAGUCUGAAUGAAGACGAAACAGC [GAAUGA] , same question. 1.66

GCUGUCACCGGUGUAUUACCCUAGUGGUCGACCGGUCUGAUGAGUCUCCCAAGAGACGAAACAGC [CCCAAG] , same question. 1.6

GCUGUCACCGGUGUAUUACCCUAGUGGUCGACCGGUCUGAUGAGUCUUAUUGUAGACGAAACAGC [UAUUGU] , same question. 1.7

GCUGUCACCGGUGUAUUACCCUAGUGGUCGACCGGUCUGAUGAGUCUUACUAAAGACGAAACAGC [UACUAA] , same question. 1.8

GCUGUCACCGGUGUAUUACCCUAGUGGUCGACCGGUCUGAUGAGUCUCCUCUUAGACGAAACAGC [CCUCUU] , same question. 1.98

GCUGUCACCGGUGUAUUACCCUAGUGGUCGACCGGUCUGAUGAGUCUCAUUCUAGACGAAACAGC [CAUUCU] , same question. 1.86

GCUGUCACCGGUGUAUUACCCUAGUGGUCGACCGGUCUGAUGAGUCUUACGCUAGACGAAACAGC [UACGCU] , same question. 1.85

GCUGUCACCGGUGUAUUACCCUAGUGGUCGACCGGUCUGAUGAGUCUCCGUCCAGACGAAACAGC [CCGUCC] , same question. 1.91

GCUGUCACCGGUGUAUUACCCUAGUGGUCGACCGGUCUGAUGAGUCUCGGACCAGACGAAACAGC [CGGACC] , same question. 1.94

GCUGUCACCGGUGUAUUACCCUAGUGGUCGACCGGUCUGAUGAGUCUCACUUAAGACGAAACAGC [CACUUA] , same question. 1.78

GCUGUCACCGGUGUAUUACCCUAGUGGUCGACCGGUCUGAUGAGUCUGAGAGUAGACGAAACAGC [GAGAGU] , same question. 1.49

GCUGUCACCGGUGUAUUACCCUAGUGGUCGACCGGUCUGAUGAGUCUCAGAACAGACGAAACAGC [CAGAAC] , same question. 1.73

GCUGUCACCGGUGUAUUACCCUAGUGGUCGACCGGUCUGAUGAGUCUAACAAUAGACGAAACAGC [AACAAU] , same question. 1.74

GCUGUCACCGGUGUAUUACCCUAGUGGUCGACCGGUCUGAUGAGUCUCAAAAAAGACGAAACAGC [CAAAAA] , same question. 1.74

GCUGUCACCGGUGUAUUACCCUAGUGGUCGACCGGUCUGAUGAGUCUGCAUAGAGACGAAACAGC [GCAUAG] , same question. 1.43

GCUGUCACCGGUGUAUUACCCUAGUGGUCGACCGGUCUGAUGAGUCUAGGAUAAGACGAAACAGC [AGGAUA] , same question. 1.68
